Target: recombinant soluble homotrimeric HA of A/chicken/Vietnam/NCVD-016/08 (H5N1) (Influenza A virus A/chicken/Vietnam/NCVD-016/2008 (H5N1))
Assay: HA microarray, BCC supernatant
Details: remark: other sources report otherwise
assay_metric: Trimeric HA Binding RLU (RLU)
Answers are plain numbers, in RLU.

TCN-537 (3194_D21) (antibody, V domains shown) VH: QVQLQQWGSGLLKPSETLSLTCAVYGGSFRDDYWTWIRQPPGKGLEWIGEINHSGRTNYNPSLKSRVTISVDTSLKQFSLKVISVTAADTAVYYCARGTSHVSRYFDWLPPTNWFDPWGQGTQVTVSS VL: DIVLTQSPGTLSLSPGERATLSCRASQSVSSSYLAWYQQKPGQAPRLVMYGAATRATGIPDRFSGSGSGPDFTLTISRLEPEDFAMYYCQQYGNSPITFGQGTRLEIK : 8620
TCN-527 (5086_C06) (antibody, V domains shown) VH: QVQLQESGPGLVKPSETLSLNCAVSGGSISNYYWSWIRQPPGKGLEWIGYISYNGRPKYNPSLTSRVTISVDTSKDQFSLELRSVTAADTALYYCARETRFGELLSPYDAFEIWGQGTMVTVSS VL: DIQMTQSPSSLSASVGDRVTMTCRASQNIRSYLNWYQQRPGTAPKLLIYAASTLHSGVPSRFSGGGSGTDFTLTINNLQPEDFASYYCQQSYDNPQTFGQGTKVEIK : 27000

Now turn to the next binder.
query: Sample TCN-557 (5081_A04) (antibody, V domains shown) VH: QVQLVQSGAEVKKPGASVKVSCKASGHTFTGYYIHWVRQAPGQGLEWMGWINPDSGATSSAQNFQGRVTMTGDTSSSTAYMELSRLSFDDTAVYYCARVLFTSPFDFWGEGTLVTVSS VL: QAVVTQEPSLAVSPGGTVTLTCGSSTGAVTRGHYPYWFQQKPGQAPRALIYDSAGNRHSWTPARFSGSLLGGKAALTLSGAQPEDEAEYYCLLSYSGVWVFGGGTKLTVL — what was its Trimeric HA Binding RLU?
result: 45500
